- System: SNB-75 CNS
- method: NCI-60 one-dose screen, 48 h
- recordedConditions: 10 µM unless noted
The panel holds about 83,000 compounds, 20% with a hit somewhere; the sample as a whole holds those more often. Calls of active or inactive are those of the source. The calls were made as follows: active = growth percent below 10; inactive = the rest.
Allowed answers: 1.0 (active), 0.0 (inactive)

Query: Per the assay record, what outcome was assigned to CCCCn1c(=O)c(-c2cc(-c3ccc(Cl)cc3)nc(-c3ccc(Cl)cc3)c2)cc2cc(Cl)ccc21 ?
Response: 0.0

Query: Kindly provide the recorded test outcome for the following compound: Cc1nc2ccccc2c(/C=C/c2ccc(Cl)cc2)c1C(=O)/C=C/c1cccs1
Response: 0.0

Query: Fill in: this test's call for CN1CCN(Cc2ccc(NC(=O)c3cncc(C#Cc4cnccc4C#N)c3)cc2C(F)(F)F)CC1 is ___
Response: 0.0

Query: Answer briefly: the call reported for CC1(C)C2CC1C1(/C=N\Nc3ccccc3)C(C2)C(C#N)(C#N)C1(C#N)C#N (centres undefined) in this assay.
Response: 0.0

Query: Give the logged outcome of this assay for the following compound: Cc1cc2nc3cc(C)c(N)cc3[n+](-c3ccccc3)c2cc1N
Response: 0.0

Query: Hi, sorry to bother you, what did the test record for COc1ccc(OC)c(/C=C/c2nnc(Nc3ccccc3)o2)c1 ?
Response: 0.0

Query: What is the recorded call for this compound in the test? COc1ccc(OC)c(/C=C/C(=O)N/N=C/c2ccc(Cl)cc2)c1
Response: 0.0

Query: Hi, do you know how COc1cc2cc(Oc3ccc(NC(=O)Nc4cccc(C(F)(F)F)c4)cc3)c(C)nc2cc1OCCN1CCOCC1 came out in this test?
Response: 0.0

Query: Recorded test call requested for CCCSc1nc2ccc(C)cc2cc1/C=[N+](\[O-])c1ccccc1
Response: 0.0

Query: What was the test verdict on Cc1[nH]c(C(=O)Nc2ccc(C(=O)N3CCNCC3)cc2OC(C)C)c(Cl)c1Cl ?
Response: 0.0

Query: Recorded call for COc1cc(/C=C/c2c(C(C)=O)c(C)nc3ccccc23)cc(OC)c1OC ?
Response: 1.0

* * *

- Test system: DU-145 prostate
- method: NCI-60 one-dose screen, 48 h
- recordedConditions: 10 µM unless noted
- Experimental: Cells are grown in 96 well plates and exposed to the test compound for 48 hours. Compounds are tested at a single concentration, which is 10^-5 M for most compounds. The reported endpoint is percent growth (GI% or GIPRCNT), where numbers from 0 - 100% represent growth inhibition, and numbers from -100% - 0 represent cell death. For example, a value of 40 represents 60% growth inhibition. A value of 0 means no net growth occurred over the course of the experiment. […]
This is part of a sample that, as a whole, favours compounds with a hit. Of some 83,000 tested, about 20% had one in any assay. The source made the active and inactive calls. How the source made its calls: active means growth percent below 10; inactive means the rest.
Allowed answers: 1.0 for active, 0.0 for inactive

Study these solved cases before continuing.
[O-][n+]1c2ccccc2[n+]([O-])c2c3ccccc3[nH]c21 :: 0.0
C[C@]12CC[C@@H]3c4cc(OC(F)F)c(OS(N)(=O)=O)cc4CC[C@H]3[C@@H]1CC[C@@H]2O :: 1.0
c1ccc(Cc2nn3cc(-c4ccccc4)nc3s2)cc1 :: 0.0
NCCCNc1nc2ccccc2c2c(=O)c3cc(F)cc(Cl)c3sc12 :: 0.0

Query: Could you check what this test reported for Cc1nc(S(=O)(=O)c2ccccc2)c(S(=O)(=O)Cc2ccc([N+](=O)[O-])cc2)o1 ?
Response: 0.0

Query: Entry CC(C)n1cnc2c(Nc3cccc(Cl)c3)nc(N[C@H]3CCCC[C@@H]3N)nc21 : call = ?
Response: 0.0

Query: What did the test return for COc1ccc2nc(NC(=O)c3cccnc3Nc3ccc(S(N)(=O)=O)cc3)sc2c1 ?
Response: 0.0

Query: Write down the call the test reported for this molecule. Item: O=C(Oc1cccc2ccccc12)Oc1cccc2ccccc12
Response: 0.0

* * *

- System: SK-OV-3 ovarian
- method: NCI-60 one-dose screen, 48 h (100 = growth as untreated, 0 = no growth, -100 = all killed)
- recordedConditions: 10 µM unless noted
About 83,000 compounds went through this panel and 20% of them were active in at least one assay; those are over-represented in the sample as a whole.
Measured growth of individual entries
Numbers only; they are read as %.

A selection of reference data follows.
O=c1[nH][n+](-c2ccc(Br)cc2)no1 :: 82.3
CC(=O)O.CN1[CH-]N(Cc2ccc(C#N)cc2)c2ccccc21.[Ag+] :: 120
O=S(=O)(Nc1ccc(-c2nc(-c3cccc(OCCN4CCOCC4)c3)c(-c3ccnc(Br)c3)[nH]2)cc1)c1ccccc1 :: 59.1

Known value: SK-OV-3 ovarian growth of the molecule Cc1ccc2sc3c(NCCCN)nc4ccccc4c3c(=O)c2c1 equals 90.2

Fill in: SK-OV-3 ovarian growth for CN1CCN(c2ccc(-c3cnc4c(-c5csc6ccccc56)cnn4c3)cc2)CC1 = 81.1

* * *

- Test system: NCI-H522 lung
- method: NCI-60 one-dose screen, 48 h
- recordedConditions: 10 µM unless noted
About 83,000 compounds went through this panel and 20% of them were active in at least one assay; those are over-represented in the sample as a whole. Activity calls are given as the source filed them. The calls were made as follows: active = growth percent below 10; inactive = the rest.
Answer with one of the outcomes given here: true (active), false (inactive)

CCCCOc1ccc(/C=N/NC(N)=S)cc1 :: true
CCOC(=O)C1=C(N)Oc2c(sc3c(C)cccc23)C1c1ccc(F)cc1 (stereo unspecified) :: false
CC(=O)CC(c1cccs1)c1c(-c2ccccc2)[nH]c2ccccc12 (stereo unspecified) :: false
Cc1[nH]c(C(=O)Nc2ccc(C(=O)N3CCNCC3)cc2OC(C)C)c(Cl)c1Cl :: false
Fc1cc(-c2nnc3sc(-c4ccc(Cl)cc4Cl)nn23)c(Cl)cc1Cl :: false

Turning to the following compound.
Query: For c1ccc2c(c1)Nc1ccncc1S2 , which call appears in the assay record?
Response: false

* * *

- System: SK-MEL-5 melanoma
- method: NCI-60 one-dose screen, 48 h (100 = growth as untreated, 0 = no growth, -100 = all killed)
- recordedConditions: 10 µM unless noted
Compounds without any hit were thinned out: in the full panel of roughly 83,000, 20% have a hit.
Known growth of a selection of molecules
All answers are understood in %, so give the number only.

NCCOc1ncccc1/C=C1\C2C=CC=CC2C2C=CC(F)=CC12 (stereo unspecified) :: 21.7
COc1ccc(-c2ncnc3c2ncn3CC#CCCl)cc1 :: 62.5
CCCCn1c(-c2ccc(C(=O)O/N=C(\N)c3ccc(OC)cc3)cc2)nc(-c2ccccc2)c1-c1ccccc1 :: 41.8
C=CCc1cc(C)ccc1NC(C(=O)NCC(=O)OC)c1ccccc1 (stereo unspecified) :: 102
C=C1C(=O)O[C@H]2[C@H]1CC/C(COC(=O)NCCOCCOCC(=O)Nc1ccc(OC)c(C(N)=O)c1O)=C\CC[C@@]1(C)O[C@@H]21 :: 84.9
Cc1ccc(-c2nc(N3CCN(CC(=O)Nc4ccc(Cl)cc4)CC3)c3ccccc3n2)cc1 :: 89
COc1ccc(OC)c(/C=C/C(=O)N/N=C/c2ccc(Cl)cc2)c1 :: 30.6
Cc1ccc(NC2=C(Cl)C(=O)c3nc(C)ccc3C2=O)cc1 :: -90.8

Just so you know, measured growth for S=C(c1cccs1)N1CCN(c2cccc(Cl)c2)CC1 came out at 92.1

Short answer for COc1cccc2c(=O)c3c(sc12)c(NCCCN)nc1ccccc13 : growth was 85.9

Form field growth, entry O=C(Nc1nc2ccc(F)cc2s1)c1cccnc1Nc1ccc(Cl)cc1Cl : -2.74

Record Cc1nn(-c2ccccc2)c2c1N=c1s/c(=C\c3ccc(C(F)(F)F)cc3)c(=O)n1CN2 , field growth: 31.1

Short answer for NCCNc1nc2ccccc2c2c(=O)c3cc(F)ccc3sc12 : growth was 93.9

Note to self: growth recorded for COc1cc(Nc2nc(NCCN)nc3cc[nH]c(=O)c23)cc(OC)c1 was 81.6

Recorded result, COc1cccc(Cc2cc(-c3ccccc3)nn(CC(=O)c3ccccc3)c2=O)c1 , growth: 39.4

get_value(item= CCOC(=O)CCN(C(=O)Nc1ccccc1)C1CCCCC1 , readout=growth) returns 99.2

Documented growth of CCOC(=O)c1c(C)nc2c(c1N)CC(=O)N2Cc1ccc(F)cc1 : 92.9

The measured growth associated with N#C/C(=C\c1ccc(F)cc1)n1nc2cccc(F)c2n1 reads 73

CCN(CC)S(=O)(=O)c1ccc(NC(=O)CSc2nnc(C)n2-c2ccccc2)cc1 has a reported growth of 105

Consider COc1ccc(N2C(=O)C(Oc3ccccc3)C2c2ccc(C)cc2)cc1 (stereo unspecified) . Its measured growth is 104

The value of growth measured for the molecule Cc1onc2c(-c3ccccc3)n[nH]c(=O)c12 turned out to be 105

* * *

- Tested on: OVCAR-4 ovarian
- method: NCI-60 one-dose screen, 48 h (100 = growth as untreated, 0 = no growth, -100 = all killed)
- recordedConditions: 10 µM unless noted
The panel holds about 83,000 compounds, 20% with a hit somewhere; the sample as a whole holds those more often.
Simple rule here: growth less than 90% is MET, otherwise NOT MET.

Please review the following examples before continuing.
Cc1nc2ccccc2c(/C=C/c2ccccc2)c1C(=O)/C=C/c1ccc(C(F)(F)F)cc1 :: MET
Cc1nc2ccccc2n1CC1C(=O)NC(=O)NC1=O :: NOT MET
CNCCCNc1nc2ccccc2c2c(=O)c3cc(OC)ccc3sc12 :: MET

Query compound follows.
Query: growth under 90%? Item: COc1ccc2c(c1OC)C(=O)O[C@H]2[C@H]1c2c(cc3c(c2OC)OCO3)CCN1C
Response: NOT MET
